# subject-of-test: Glucocorticoid receptor (Homo sapiens) (UniProt P04150)
# Sequence (P04150 whole entry, looked up): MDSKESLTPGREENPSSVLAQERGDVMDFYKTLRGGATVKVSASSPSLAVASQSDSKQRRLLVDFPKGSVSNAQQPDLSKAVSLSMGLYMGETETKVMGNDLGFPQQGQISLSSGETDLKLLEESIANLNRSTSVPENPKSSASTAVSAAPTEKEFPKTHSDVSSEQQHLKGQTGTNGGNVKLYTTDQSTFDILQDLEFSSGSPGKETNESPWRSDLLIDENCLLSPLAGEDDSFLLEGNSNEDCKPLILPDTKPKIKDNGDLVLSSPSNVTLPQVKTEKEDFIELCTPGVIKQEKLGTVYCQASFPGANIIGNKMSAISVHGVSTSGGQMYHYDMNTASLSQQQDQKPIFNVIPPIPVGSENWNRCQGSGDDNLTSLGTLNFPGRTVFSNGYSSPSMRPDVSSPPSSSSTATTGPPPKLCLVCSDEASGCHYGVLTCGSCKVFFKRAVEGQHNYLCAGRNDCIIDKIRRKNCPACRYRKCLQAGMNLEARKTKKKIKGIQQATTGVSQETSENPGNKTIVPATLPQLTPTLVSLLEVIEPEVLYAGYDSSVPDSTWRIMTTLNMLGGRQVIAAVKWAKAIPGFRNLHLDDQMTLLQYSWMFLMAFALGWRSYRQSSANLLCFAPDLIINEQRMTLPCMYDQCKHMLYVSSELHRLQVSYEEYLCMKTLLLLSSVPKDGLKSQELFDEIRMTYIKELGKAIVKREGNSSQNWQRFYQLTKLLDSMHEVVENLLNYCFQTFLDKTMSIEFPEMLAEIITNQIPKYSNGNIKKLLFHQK
# method-summary: GR-GFP Redistribution (AID 450); note: potency is the fitted concentration of half-maximal effect
# recorded-conditions: U2OS GR-GFP nuclear translocation, laser cytometry, 2 h
Calls of active or inactive are those of the source.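 Rule for the calls: active = compounds whose dose series gives a full or clear partial fitted curve of increased nuclear translocation; inconclusive = weak partial curve or effect only at the top dose; inactive = no dose-dependent translocation response.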
assay-endpoint: Potency

[[record]]
compound = "CCCC12CN3CN(C1)CC(CCC)(C3)C2O (centres undefined)"
subject_of_test = "Glucocorticoid receptor (Homo sapiens) (UniProt P04150)"
assay_endpoint = "Potency"
experimental_result = "> 20.6 µM (inactive)"


Provide the reported Potency of each entry below, same order.
1. C[C@@H]1O[C@@H](O[C@H]2C[C@@H](O)[C@]3(CO)[C@@H]4[C@@H](O)C[C@]5(C)[C@H]([C@@H]6COC(=O)C6)CC[C@@]5(O)[C@H]4CC[C@@]3(O)C2)[C@H](O)[C@H](O)[C@@H]1O
2. Ic1ccccc1CN[C@@H]1C2CCN(CC2)[C@H]1C(c1ccccc1)c1ccccc1
3. Nc1c(C(=O)NCc2ccco2)c2nc3ccccc3nc2n1CCN1CCCCC1
4. CCC(=NCCOc1ccc(Cl)cc1)c1c(O)n(C)c(=O)n(C)c1=O
5. COC(=O)C(O)(c1ccc(NC(=O)c2ccco2)c(OC)c1)C(F)(F)F (centres undefined)

1. > 46 µM (inactive)
2. > 46 µM (inactive)
3. > 20.6 µM (inactive)
4. > 20.6 µM (inactive)
5. > 20.6 µM (inactive)
